# study-target: Cytochrome P450 2D6 (Homo sapiens, UniProt P10635)
# Sequence (P10635 whole entry): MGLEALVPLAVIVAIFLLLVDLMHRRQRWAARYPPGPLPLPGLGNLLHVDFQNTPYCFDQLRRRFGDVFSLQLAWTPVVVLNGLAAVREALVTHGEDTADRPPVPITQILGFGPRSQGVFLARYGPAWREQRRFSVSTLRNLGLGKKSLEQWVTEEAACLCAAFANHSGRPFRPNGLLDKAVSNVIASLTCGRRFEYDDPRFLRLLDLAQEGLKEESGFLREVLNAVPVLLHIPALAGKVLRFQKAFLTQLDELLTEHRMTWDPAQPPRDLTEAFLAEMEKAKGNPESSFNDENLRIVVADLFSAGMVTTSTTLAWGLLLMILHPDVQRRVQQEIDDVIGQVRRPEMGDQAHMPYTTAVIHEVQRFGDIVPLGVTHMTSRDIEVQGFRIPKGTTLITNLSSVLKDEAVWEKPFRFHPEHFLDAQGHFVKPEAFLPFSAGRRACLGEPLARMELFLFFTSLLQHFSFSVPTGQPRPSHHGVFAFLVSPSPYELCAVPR
# test-summary: Drug metabolism assessed as human CYP2D6-mediated compound formation from 5 uM [14C]boceprevir after 120 mins by LC-MS/FSA method relative to total [14C]boceprevir
# Type: ADME
# run-conditions: recombinant enzyme, 2 h
property-label: Compound recovery (%)

(I) CC(C)(C)NC(=O)N[C@H](C(=O)N1C[C@H]2[C@@H]([C@H]1C(=O)N[C@H](CC1CCC1)C(=O)C(N)=O)C2(C)C)C(C)(C)C
(II) CC(C)(C)NC(=O)N[C@H](C(=O)N1C[C@H]2[C@@H]([C@H]1C(=O)N[C@@H](CC1CCC1)[C@@H](O)C(N)=O)C2(C)C)C(C)(C)C
(III) CC(C)(C)NC(=O)N[C@H](C(=O)N1C[C@H]2[C@@H]([C@H]1C(=O)N[C@@H](CC1CCC1)C(=O)C(N)=O)C2(C)C)C(C)(C)C
(IV) CC(C)(C)NC(=O)N[C@H](C(=O)N1C[C@H]2[C@@H]([C@H]1C(N)=O)C2(C)C)C(C)(C)C
Put the listed items above in order, lowest Compound recovery first. // ordering of labels required in reply
II, IV, I, III

###

# study-target: Cytochrome P450 3A5 (Homo sapiens)
# Sequence (P20815 whole entry): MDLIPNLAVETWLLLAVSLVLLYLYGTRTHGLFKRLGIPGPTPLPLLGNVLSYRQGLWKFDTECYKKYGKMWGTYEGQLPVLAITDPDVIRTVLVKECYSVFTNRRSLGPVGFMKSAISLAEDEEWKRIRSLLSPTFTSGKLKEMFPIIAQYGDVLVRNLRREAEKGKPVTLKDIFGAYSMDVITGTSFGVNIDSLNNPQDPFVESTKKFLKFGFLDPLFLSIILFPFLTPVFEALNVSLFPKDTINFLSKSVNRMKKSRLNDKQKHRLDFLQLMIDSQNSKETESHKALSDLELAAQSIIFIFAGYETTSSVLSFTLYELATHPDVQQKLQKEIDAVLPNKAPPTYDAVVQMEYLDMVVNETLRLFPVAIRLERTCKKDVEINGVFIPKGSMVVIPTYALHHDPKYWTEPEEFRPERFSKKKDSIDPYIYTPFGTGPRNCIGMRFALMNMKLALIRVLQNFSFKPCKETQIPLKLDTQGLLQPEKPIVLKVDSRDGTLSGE
# test-summary: Drug metabolism assessed as human CYP3A5-mediated compound formation from 5 uM [14C]boceprevir after 120 mins by LC-MS/FSA method relative to total [14C]boceprevir
# Assay type: ADME
# run-conditions: recombinant enzyme, 2 h
property-label: Compound recovery (%)

CC(C)(C)NC(=O)N[C@H](C(=O)N1C[C@H]2[C@@H]([C@H]1C(=O)N[C@H](CC1CCC1)C(=O)C(N)=O)C2(C)C)C(C)(C)C ... 2.19

(P) CC(C)(C)NC(=O)N[C@H](C(=O)N1C[C@H]2[C@@H]([C@H]1C(=O)O)C2(C)C)C(C)(C)C
(Q) CC(C)(C)NC(=O)N[C@H](C(=O)N1C[C@H]2[C@@H]([C@H]1C(=O)N[C@@H](CC1CCC1)C(=O)C(N)=O)C2(C)C)C(C)(C)C
(R) CC(C)(C)NC(=O)N[C@H](C(=O)N1C[C@H]2[C@@H]([C@H]1C(N)=O)C2(C)C)C(C)(C)C
# rank by Compound recovery, ascending (min first) Quick reminder: the answer is the labels in the order asked.
Q, P, R
(Q: 0.98%, P: 2.22%, R: 15.74%)

These measurements were taken from ChEMBL document CHEMBL3526141.
